Consider the following compounds and their measured pKi readings.
Biological target: Neutrophil elastase (Homo sapiens, UniProt P08246)
Sequence (P08246 whole entry): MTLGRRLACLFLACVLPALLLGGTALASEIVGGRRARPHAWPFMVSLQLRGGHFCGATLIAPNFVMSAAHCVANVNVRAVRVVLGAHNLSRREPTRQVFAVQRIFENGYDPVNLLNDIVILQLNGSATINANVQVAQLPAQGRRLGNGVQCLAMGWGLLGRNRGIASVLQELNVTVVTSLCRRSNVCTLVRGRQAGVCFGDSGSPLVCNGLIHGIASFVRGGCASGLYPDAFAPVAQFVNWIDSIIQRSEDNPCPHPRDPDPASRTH
Experiment: Inhibition of human neutrophil elastase using flurogenic substrate as elastase substrate V by fluorescence assay
The meaning of pKi here: minus log10 of the concentration in molar units.

| compound | measuredOn | pKi |
| --- | --- | --- |
| CC(C)C(NC(=O)OCc1ccccc1)P(=O)(Oc1ccccc1)Oc1ccccc1 (configuration not stated) | Neutrophil elastase (Homo sapiens, UniProt P08246) | 5.53 |

Lab entry: Neutrophil elastase (Homo sapiens, UniProt P08246) assay, compound CC(C)C(NC(=O)OCc1ccccc1)P(=O)(Oc1ccccc1)c1ccccc1 (configuration not stated) , pKi = 4.29

---

Organism: Bos taurus
Assay: Inhibition of bovine chymotrypsin assessed as ratio of Kinact to Ki using flurogenic substrate as chymotrypsin substrate 2 by fluorescence assay
Consider the following compounds and their measured Ratio readings.
// units = ×10³ /M/s; emit number, no label

| compound | Ratio [×10³ /M/s] |
| --- | --- |
| O=C(NC(Cc1ccccc1)P(=O)(Oc1ccccc1)c1ccccc1)OCc1ccccc1 (stereo unspecified) | 16.4 |
| O=C(NC(Cc1ccccc1)P(=O)(Oc1ccccc1)Oc1ccccc1)OCc1ccccc1 (stereo unspecified) | 8.1 |

Reported Ratio for O=C(NC(c1ccccc1)P(=O)(Oc1ccccc1)c1ccccc1)OCc1ccccc1 (stereo unspecified) was 3.4

---

Consider the following compounds and their measured Ratio readings.
Organism: Bos taurus
Experiment: Inhibition of bovine chymotrypsin assessed as ratio of Kinact to Ki using flurogenic substrate as chymotrypsin substrate 2 by fluorescence assay
// units = M⁻¹ s⁻¹; emit number, no label

Answered cases to consult:
| compound | Ratio / M⁻¹ s⁻¹ |
| --- | --- |
| CC(C)CC(NC(=O)OCc1ccccc1)P(=O)(Oc1ccccc1)c1ccccc1 (stereo not drawn) | 978 |
| CCCP(=O)(Oc1ccccc1)C(CC(C)C)NC(=O)OCc1ccccc1 (stereo not drawn) | 188 |

Proceed to the following item.
Reported Ratio for CCCP(=O)(Oc1ccccc1)C(NC(=O)OCc1ccccc1)c1ccccc1 (stereo not drawn) was 404

Reference source for all entries: ChEMBL document CHEMBL4622994
